Where these numbers come from: patent US12662489B2

# TARGET_ENTITY: MTHFD2 recombinant human enzyme (Homo sapiens, UniProt P13995)
# PROTOCOL_SUMMARY: MTHFD2 inhibition assay (NAD(P)H-Glo luminescence)
# EXPERIMENTAL_CONDITIONS: MTHFD2 IC50, recombinant human enzyme 40 nM, NAD+, band
OBSERVATION_TYPE: IC50

Find the recorded IC50 belonging to Cc1c(N2CCN(C)[C@@H](C)C2)ccc2c3c(c(=O)oc12)CN(C(=O)c1ccc(NS(C)(=O)=O)c(OC(F)(F)F)c1)CC3 [Reference Example 1, reference compound] and report it.
10 to 100 nM

###

# TARGET_ENTITY: MTHFD1 recombinant human enzyme (Homo sapiens, UniProt P11586)
# Sequence (P11586 2-291 limits assumed): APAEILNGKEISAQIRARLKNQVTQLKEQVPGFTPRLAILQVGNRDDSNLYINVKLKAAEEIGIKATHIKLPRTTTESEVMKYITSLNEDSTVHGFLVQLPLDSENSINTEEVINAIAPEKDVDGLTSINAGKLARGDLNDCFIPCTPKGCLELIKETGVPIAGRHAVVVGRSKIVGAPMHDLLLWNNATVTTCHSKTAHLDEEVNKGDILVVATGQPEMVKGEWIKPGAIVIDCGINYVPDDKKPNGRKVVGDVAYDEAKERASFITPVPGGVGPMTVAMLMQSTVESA
# PROTOCOL_SUMMARY: MTHFD1 inhibition assay (NAD(P)H-Glo luminescence)
# EXPERIMENTAL_CONDITIONS: MTHFD1 IC50, recombinant human enzyme 200 nM, NADP, band
OBSERVATION_TYPE: IC50

Please review the following examples before continuing.
{"MOLECULE": "COC[C@H]1CN(c2cc(C)c3c4c(c(=O)oc3c2C)CN(C(=O)c2cc(C(=O)NS(=O)(=O)N3CCCC3)c3c(c2F)OC2(CCC2)O3)CC4)CCN1C [Example 168]", "TARGET_ENTITY": "MTHFD1 recombinant human enzyme (Homo sapiens, UniProt P11586)", "IC50": "> 5000 nM"}
{"MOLECULE": "COC[C@H]1CN(c2ccc3c4c(c(=O)oc3c2C)CN(C(=O)c2ccc(C(=O)NS(=O)(=O)N3CCCC3)c(OC3CCCC3)c2F)CC4)CCN1C [Example 12]", "TARGET_ENTITY": "MTHFD1 recombinant human enzyme (Homo sapiens, UniProt P11586)", "IC50": "1 to 10 nM"}
{"MOLECULE": "COC[C@H]1CN(c2cc(C)c3c4c(c(=O)oc3c2C)CN(C(=O)c2ccc(C(=O)NS(=O)(=O)N3CCCC3)c(OCCC(F)(F)F)c2F)CC4)CCN1C [Example 222]", "TARGET_ENTITY": "MTHFD1 recombinant human enzyme (Homo sapiens, UniProt P11586)", "IC50": "10 to 100 nM"}
{"MOLECULE": "COC[C@H]1CN(c2ccc3c4c(c(=O)oc3c2C)CN(C(=O)c2ccc(C(=O)NS(=O)(=O)N(C)C)c(OC3C[C@@H]5C[C@@H]5C3)c2)CC4)CCN1C (mixture of isomers) [Example 113]", "TARGET_ENTITY": "MTHFD1 recombinant human enzyme (Homo sapiens, UniProt P11586)", "IC50": "10 to 100 nM"}

GET /values?readout=IC50&system=MTHFD1 recombinant human enzyme (Homo sapiens, UniProt P11586)&item= COC[C@H]1CN(c2cc(C)c3c4c(c(=O)oc3c2C)CN(C(=O)c2ccc(C(=O)NS(=O)(=O)N3CCCC3)c(OC)c2F)CC4)CCN1C [Example 135]
10 to 100 nM

###

# TARGET_ENTITY: MTHFD2 recombinant human enzyme (Homo sapiens, UniProt P13995)
# Sequence (P13995 36-350): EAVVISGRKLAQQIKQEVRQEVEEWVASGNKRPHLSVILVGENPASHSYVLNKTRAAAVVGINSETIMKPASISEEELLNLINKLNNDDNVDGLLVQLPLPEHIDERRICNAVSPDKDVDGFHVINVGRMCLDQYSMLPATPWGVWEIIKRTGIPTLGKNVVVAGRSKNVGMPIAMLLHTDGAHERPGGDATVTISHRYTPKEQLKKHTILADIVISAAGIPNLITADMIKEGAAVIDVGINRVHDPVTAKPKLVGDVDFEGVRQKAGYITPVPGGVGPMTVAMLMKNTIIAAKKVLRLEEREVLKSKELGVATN
# PROTOCOL_SUMMARY: MTHFD2 inhibition assay (NAD(P)H-Glo luminescence)
# EXPERIMENTAL_CONDITIONS: selectivity of MTHFD2 inhibition over MTHFD1, band
OBSERVATION_TYPE: MTHFD1/MTHFD2 IC50 ratio

Please review the following examples before continuing.
{"COMPOUND": "COC[C@H]1CN(c2cc(C)c3c4c(c(=O)oc3c2C)CN(C(=O)c2ccc(C(=O)NS(=O)(=O)N3CCCC3)c(OC3CCC(F)(F)CC3)c2)CC4)CCN1C [Example 99]", "MTHFD1/MTHFD2 IC50 ratio": "F (<3)"}
{"COMPOUND": "COC[C@H]1CN(c2ccc3c4c(c(=O)oc3c2Cl)CN(C(=O)c2ccc(C(=O)NS(=O)(=O)C3(C)CC3)c(OC3CCCC3)c2F)CC4)CCN1C [Example 57]", "MTHFD1/MTHFD2 IC50 ratio": "F (<3)"}
{"COMPOUND": "COC[C@H]1CN(c2cc(C)c3c4c(c(=O)oc3c2C)CN(C(=O)c2ccc(C(=O)NS(=O)(=O)N(C)C)c(N(C)C3CCC3)c2F)CC4)CCN1C [Example 39]", "MTHFD1/MTHFD2 IC50 ratio": "G (^ 3 to 9.0)"}
{"COMPOUND": "COC[C@H]1CN(c2ccc3c4c(c(=O)oc3c2C)CN(C(=O)c2c(C)cc(C(=O)NS(=O)(=O)N3CCCC3)c(OC3CCC3)c2F)CC4)CCN1C [Example 140]", "MTHFD1/MTHFD2 IC50 ratio": "F (<3)"}
{"COMPOUND": "COC[C@H]1CN(c2ccc3c4c(c(=O)oc3c2C)CN(C(=O)c2ccc(C(=O)NS(=O)(=O)C3(C)CC3)c(OC3CCCC3)c2F)CC4)CCN1C [Example 9]", "MTHFD1/MTHFD2 IC50 ratio": "F (<3)"}
{"COMPOUND": "COC[C@H]1CN(c2ccc3c4c(c(=O)oc3c2C)CN(C(=O)c2cc(N3CCC3)c(C(=O)NS(=O)(=O)N3CC5CC5C3)cc2F)CC4)CCN1C (stereo partly drawn) [Example 203]", "MTHFD1/MTHFD2 IC50 ratio": "G (^ 3 to 9.0)"}
{"COMPOUND": "COC[C@H]1CN(c2cc(C)c3c4c(c(=O)oc3c2C)CN(C(=O)c2ccc(C(=O)NS(=O)(=O)N3C5CCC3CC5)c(OC)c2F)CC4)CCN1C [Example 157]", "MTHFD1/MTHFD2 IC50 ratio": "H (>9.0 to 30)"}
{"COMPOUND": "COC[C@H]1CN(c2ccc3c4c(c(=O)oc3c2C)CN(C(=O)c2ccc(C(=O)NS(=O)(=O)N3CCCC3)c(OC3CCCC3)c2F)CC4)CCN1C [Example 12]", "MTHFD1/MTHFD2 IC50 ratio": "F (<3)"}
{"COMPOUND": "CCOc1cc(C(=O)N2CCc3c(c(=O)oc4c(C)c(N5CCN(C)[C@@H](COC)C5)cc(C)c34)C2)c(F)cc1C(=O)NS(=O)(=O)N1C2CCC1CC2 [Example 218]", "MTHFD1/MTHFD2 IC50 ratio": "H (>9.0 to 30)"}
{"COMPOUND": "COC[C@H]1CN(c2cc(C)c3c4c(c(=O)oc3c2C)CN(C(=O)c2ccc(C(=O)NS(=O)(=O)C3(C)CC3)c(N3C5CCC3CC5)c2)CC4)CCN1C [Example 48]", "MTHFD1/MTHFD2 IC50 ratio": "F (<3)"}

Here's the next entry for you.
Find the recorded MTHFD1/MTHFD2 IC50 ratio belonging to COC[C@H]1CN(c2cc(C)c3c4c(c(=O)oc3c2C)CN(C(=O)c2ccc(C(=O)NS(=O)(=O)C3(C)CC3)c(N3CCCC3)c2)CC4)CCN1C [Example 45] and report it.
H (>9.0 to 30)

###

# TARGET_ENTITY: MTHFD2 recombinant human enzyme (Homo sapiens)
# PROTOCOL_SUMMARY: MTHFD2 inhibition assay (NAD(P)H-Glo luminescence)
# EXPERIMENTAL_CONDITIONS: selectivity of MTHFD2 inhibition over MTHFD1, band
OBSERVATION_TYPE: MTHFD1/MTHFD2 IC50 ratio

{"MOLECULE": "COC[C@H]1CN(c2cc(C)c3c4c(c(=O)oc3c2C)CN(C(=O)c2cc3c(c(C(=O)NS(=O)(=O)N5CCCC5)c2)OC2(CCC2)O3)CC4)CCN1C [Example 167]", "OBSERVED": "H (>9.0 to 30)"}
{"MOLECULE": "COC[C@H]1CN(c2cc(C)c3c4c(c(=O)oc3c2C)CN(C(=O)c2cc(OC)c(C(=O)NS(=O)(=O)N3CC5CC5C3)cc2F)CC4)CCN1C (stereo partly drawn) [Example 249]", "OBSERVED": "J (>30)"}
{"MOLECULE": "COC[C@H]1CN(c2cc(C)c3c4c(c(=O)oc3c2C)CN(C(=O)c2ccc(C(=O)NS(=O)(=O)N3C5CCC3CC5)c(C)c2F)CC4)CCN1C [Example 241]", "OBSERVED": "H (>9.0 to 30)"}
{"MOLECULE": "COC[C@H]1CN(c2cc(C)c3c4c(c(=O)oc3c2C)CN(C(=O)c2cc(C(=O)NS(=O)(=O)N3CCCC3)c(OC3CCC3)cc2F)CC4)CCN1C [Example 165]", "OBSERVED": "H (>9.0 to 30)"}

Find the recorded MTHFD1/MTHFD2 IC50 ratio belonging to COC[C@H]1CN(c2cc(Cl)c3c4c(c(=O)oc3c2C)CN(C(=O)c2cc(N(C)C)c(C(=O)NS(=O)(=O)N(C)C)cc2F)CC4)CCN1C [Example 260] and report it.
J (>30)
